Origin of values: patent US20140296484A1

- Tested On: CDK4/Cyclin D1 (Homo sapiens)
- Sequence (P24385 whole entry): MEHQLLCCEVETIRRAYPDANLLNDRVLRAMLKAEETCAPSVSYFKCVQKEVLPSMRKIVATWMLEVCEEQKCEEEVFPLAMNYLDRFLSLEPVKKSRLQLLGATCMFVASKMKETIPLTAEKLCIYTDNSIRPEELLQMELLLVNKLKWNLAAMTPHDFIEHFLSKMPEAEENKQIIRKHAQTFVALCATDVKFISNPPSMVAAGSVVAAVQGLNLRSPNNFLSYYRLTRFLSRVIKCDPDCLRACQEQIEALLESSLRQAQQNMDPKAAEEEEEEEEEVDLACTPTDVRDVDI
- Sequence (P11802 whole entry partner): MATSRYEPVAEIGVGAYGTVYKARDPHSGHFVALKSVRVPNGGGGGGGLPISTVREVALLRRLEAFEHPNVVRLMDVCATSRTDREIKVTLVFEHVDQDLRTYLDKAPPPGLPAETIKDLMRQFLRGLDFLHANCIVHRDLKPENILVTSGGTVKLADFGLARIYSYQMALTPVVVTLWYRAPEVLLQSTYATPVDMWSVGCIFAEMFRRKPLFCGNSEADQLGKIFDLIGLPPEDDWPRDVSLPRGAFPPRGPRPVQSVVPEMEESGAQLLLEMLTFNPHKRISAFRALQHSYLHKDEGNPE
- Assay Procedure: Fluorescence polarization (FP) competitive binding assay
- Condition Notes: Table 11, value tagged (LIF); read-out: IC50 CDK4/D1 (LIF)
Where a SMILES comes first, the peptide text is derived from it. The star is where a group is joined. Picolinoyl = O=C(c1ccccn1)*
Reported Metric: IC50 (µM)
Reply with just the number (in µM).

Quick one: IC50 for CC[C@H](C)[C@H](NC(=O)[C@H](CC(C)C)NC(=O)[C@H](CCCNC(=N)N)NC(=O)c1ccccn1)C(=O)N[C@@H](Cc1ccccc1)C(=O)O [525 (RLIF form)] (Picolinoyl-RLIF-OH) ?
64

###

- Tested On: CDK2/cyclin A (Homo sapiens)
- Assay Procedure: Fluorescence polarization (FP) competitive binding assay
- Condition Notes: Table 11, value tagged (LIF); read-out: IC50 CDK2/A2 (LIF)
- Experimental: Once the compounds were characterized, their binding affinities were tested by FP assay.
Where a SMILES comes first, the peptide text is derived from it. The star is where a group is joined. Picolinoyl = O=C(c1ccccn1)*
Reported Metric: pIC50
Please keep in mind that pIC50 is minus log10 of the molar concentration; only the number is needed.

Quick one: pIC50 for CC[C@H](C)[C@H](NC(=O)[C@H](CC(C)C)NC(=O)[C@H](CCCNC(=N)N)NC(=O)c1ccccn1)C(=O)N[C@@H](Cc1ccccc1)C(=O)O [525 (RLIF form)] (Picolinoyl-RLIF-OH) ?
4.03

###

- Tested On: CDK4/Cyclin D1 (Homo sapiens)
- Assay Procedure: In vitro kinase assay, 32P filter capture with GST-Rb substrate
- Assay type: biochemical
- Condition Notes: kinase assay
Reported IC50 by item:
Reply with just the number (in µM).

Examples with answers:
H-HAKTRLIF-NH2    25
H-SAKRNLFGM-NH2    146

Query substance follows.
Quick one: IC50 for `H-SAKRALFGM-NH2` ?
68

###

Reported IC50 by item:
- Tested On: CDK4/Cyclin D1 (Homo sapiens)
- Assay Procedure: In vitro kinase assay, 32P filter capture with GST-Rb substrate
- Assay type: biochemical
- Condition Notes: kinase assay
Where a SMILES comes first, the peptide text is derived from it. [ ]: non-standard residue; d: D form. Ala(cPent) = N[C@@H](CC1CCCC1)C(=O)O; Cba = N[C@@H](CC1CCC1)C(=O)O
Reply with just the number (in µM).

Examples with answers:
CC[C@H](C)[C@H](NC(=O)[C@H](CC(C)C)NC(=O)[C@H](CCCNC(=N)N)NC(=O)[C@H](CCCNC(=N)N)NC(=O)[C@H](CCCCN)NC(=O)[C@H](C)NC(=O)[C@@H](N)Cc1c[nH]cn1)C(=O)N[C@@H](CC1CCC1)C(N)=O [HAKRRLIX4] (H-HAKRRLI[Cba]-NH2)    100
CC[C@H](C)[C@H](NC(=O)[C@H](CC(C)C)NC(=O)[C@H](CCCNC(=N)N)NC(=O)[C@H](CCCNC(=N)N)NC(=O)[C@H](CCCCN)NC(=O)[C@H](C)NC(=O)[C@@H](N)Cc1c[nH]cn1)C(=O)N[C@@H](CC1CCCC1)C(N)=O [HAKRRLIX5] (H-HAKRRLI[Ala(cPent)]-NH2)    90
CC[C@H](C)[C@H](NC(=O)[C@H](CC(C)C)NC(=O)[C@H](CCCNC(=N)N)NC(=O)[C@@H](N)CCCNC(N)=O)C(=O)N[C@@H](Cc1ccccc1)C(N)=O    179
CC[C@H](C)[C@H](NC(=O)[C@H](CC(C)C)NC(=O)[C@H](CCCNC(=N)N)NC(=O)c1nc(C)n(-c2cc(Cl)cc(Cl)c2)n1)C(=O)NCc1cccc(Oc2ccccc2)c1    8
CC(C)C[C@H](NC(=O)[C@H](CCCNC(=N)N)NC(=O)[C@H](CCCNC(=N)N)NC(=O)[C@H](CCCCN)NC(=O)[C@H](C)NC(=O)[C@@H]1CCCN1)C(=O)N[C@@H](Cc1ccccc1)C(=O)NCC(N)=O    6.7

Query molecule follows.
Quick one: IC50 for `CC[C@H](C)[C@H](NC(=O)[C@H](CC(C)C)NC(=O)[C@H](CCCNC(N)=O)NC(=O)[C@@H](N)CCCNC(=N)N)C(=O)N[C@@H](Cc1ccccc1)C(N)=O` ?
179
